Target: S1-Fc (SARS-CoV-2, UniProt P0DTC2 16-685)
Test: phage ELISA
result.type: specificity ELISA, percent binding relative to Acro S1 (%)
Quick reminder: number only, in %, skip the unit.

INSERT INTO results (binder, recorded_number) VALUES
  ('SARS-CoV-2 variant 1-33 (antibody, V domains shown) VH: EVQLLESGGGLVQPGGSLRLSCAASGFTFSSYAMIWVRQAPGKGLEWVSAISGSGGSTFYADSVKGRFTISRDNSKNTLYLQMNSLRAEDTAVYYCTRPPYGDYGDYWGQGTLVTVSS VL: QSALTQPASVSGSPGQSITISCTGTSSDVGSYNLLSWYQQHPGKAPKLMIYEASKRPSGVSNRFSGSKSGNTASLTISGLQAEDEADYYCCSYAGSRTPVVFGGGTKLTVL', 42.1);

Next item in the queue.
Q: Consider the binder shown here: SARS-CoV-2 variant 1-28 (antibody, V domains shown) VH: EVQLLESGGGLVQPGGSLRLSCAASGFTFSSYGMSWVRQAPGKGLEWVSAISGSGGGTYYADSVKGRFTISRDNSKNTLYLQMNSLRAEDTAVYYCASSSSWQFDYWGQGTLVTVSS VL: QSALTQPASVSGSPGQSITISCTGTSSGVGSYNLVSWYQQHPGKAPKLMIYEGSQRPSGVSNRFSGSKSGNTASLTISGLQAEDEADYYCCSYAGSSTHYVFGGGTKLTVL What is its recorded specificity ELISA, percent binding relative to Acro S1?
A: 110
